# Target entity: Sodium-dependent serotonin transporter (Homo sapiens, UniProt P31645)
# Sequence (P31645 whole entry): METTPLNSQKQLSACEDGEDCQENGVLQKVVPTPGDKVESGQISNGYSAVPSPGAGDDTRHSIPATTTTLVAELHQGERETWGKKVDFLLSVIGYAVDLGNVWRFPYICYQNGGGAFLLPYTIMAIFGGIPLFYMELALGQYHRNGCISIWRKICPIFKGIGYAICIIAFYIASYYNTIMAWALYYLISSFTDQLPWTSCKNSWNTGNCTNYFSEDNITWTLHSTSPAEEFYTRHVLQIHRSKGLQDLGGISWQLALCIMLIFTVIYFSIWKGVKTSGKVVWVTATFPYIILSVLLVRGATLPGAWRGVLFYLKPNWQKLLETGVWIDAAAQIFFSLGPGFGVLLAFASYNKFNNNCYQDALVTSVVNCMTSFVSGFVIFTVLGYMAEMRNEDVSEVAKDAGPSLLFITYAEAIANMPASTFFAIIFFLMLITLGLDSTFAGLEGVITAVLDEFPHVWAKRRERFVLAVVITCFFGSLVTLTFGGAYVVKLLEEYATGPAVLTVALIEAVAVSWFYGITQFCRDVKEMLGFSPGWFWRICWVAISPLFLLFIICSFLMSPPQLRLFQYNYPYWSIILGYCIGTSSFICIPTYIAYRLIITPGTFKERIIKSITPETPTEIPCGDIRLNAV
# Protocol notes: Displacement of [3H]citalopram from human recombinant SERT expressed in BacMam virus-transduced cells by scintillation proximity assay
# Assay type: cell-based
For each of the compounds below, state its pKi.
Give bare numbers, as −log10 of the molar value.

List pKi for every entry below, keeping the order given.
1. Cc1csc(C[C@@H]2[C@H]3CNC[C@]32c2ccc(Cl)c(Cl)c2)n1 (stereo in doubt)
2. CCOCC[C@]1(c2ccc(Cl)c(Cl)c2)[C@@H]2CNC[C@@H]21
3. Clc1ccc([C@@]23CNC[C@@H]2[C@H]3COC2CCCC2)cc1Cl (stereo in doubt)
4. CC(C)OC[C@@H]1[C@H]2CNC[C@]21c1ccc(Cl)c(Cl)c1 (stereo in doubt)

Outgoing:
[7.80, 9.30, 8.10, 9.90]
